Consider the following compounds and their measured Kd readings.
# Organism: Cavia porcellus
# assay_summary: Dissociation constant of the compound-receptor complex.
# Format: functional
measure: Kd (µM)

> print(dat)
                                   compound  measure  readout.number
1    C[N+](C)(C)CCOC(N)=O.[Cl-] [CARBACHOL]       Kd            15.3
2  CN1C(=O)CCC1C#CCN1CCCC1 (stereo not drawn)       Kd            45.3
3  CN1[C@@H]2CC[C@H]1C[C@@H](OC(=O)C(CO)c1ccccc1)C2 (stereo partly drawn) [ATROPINE]       Kd          0.0009

This collection of values is drawn from ChEMBL document CHEMBL1124658.
